# Test system: LOX IMVI melanoma
# MEASUREMENT_NOTES: NCI tumour cell line growth inhibition, 48 h
The threshold is inclusive: TGI of exactly 30 µM counts as MET; values below receive NOT MET.

Please indicate if the recorded TGI for `C=C(C)[C@@H]1CCC2=C[C@H](OC2=O)[C@@]2(C)C[C@@H]2C(=O)/C=C(/C)C(=O)[C@H]1OC(C)=O` meets or exceeds 30 µM. MET

Decide: TGI of CC1OC(OC2C(CO)OC(O[C@H]3CC[C@@]4(C)C(=CC[C@H]5[C@@H]6C[C@@H]7O[C@](O)(CC[C@H](CO)COC8OC(CO)C(O)C(O)C8O)[C@@H](C)[C@@H]7[C@@]6(C)CC[C@@H]54)C3)C(OC3OC(C)C(O)C(O)C3O)C2O)C(O)C(O)C1O (stereo not given in full) >= 30 µM? MET

Hi, just wondering whether Nc1cccc2c1C1=NNC(=O)CC1C2 (stereo not given) shows TGI of 30 µM or higher. MET

Could you please find out whether OCCCc1cc(O)c2c(c1)C(CO)C(c1ccc(O)c(O)c1)O2 (stereo not given) has TGI that meets 30 µM or exceeds it? MET

Is TGI at least 30 µM? Consider `CCCC(=O)Nc1ccc2c(c1)CN1C(=O)c3ccccc3C1=N2` MET

Hello, I need to know if CCOC(=O)C(=O)Nc1c(CC)cccc1C(C)CC (stereo not given) has measured TGI not below 30 µM. Thanks! MET

# bool: TGI of `Cc1[nH]nc2ccc3nc(-c4ccc5[nH]ncc5c4)c4c(c3c12)CCCC4` >= 30 µM NOT MET

// inclusive: TGI at least 30 µM? input: COC(=O)/C(=N\NC(=S)NN)C(C(=O)OC)C(=O)C(=O)Nc1cccc(C(F)(F)F)c1 (stereo not given) MET

Say whether `Cn1ccnc1C(=O)/C=C/c1ccc(CC(=O)Nc2ccc(F)cc2)cc1` shows TGI of 30 µM or more. NOT MET

Has `COc1ccc2oc(=O)c(-c3nc4ccccc4o3)cc2c1` a recorded TGI greater than or equal to 30 µM? MET

Hi, just wondering whether `COC(=O)Cc1c(/C=C/C(C)(C)n2cnc(CCN3C(=O)CCC3=O)c2)[nH]c2ccccc12` shows TGI of 30 µM or higher. MET
